molecular target: UniProt P00519
Sequence (P00519 whole entry): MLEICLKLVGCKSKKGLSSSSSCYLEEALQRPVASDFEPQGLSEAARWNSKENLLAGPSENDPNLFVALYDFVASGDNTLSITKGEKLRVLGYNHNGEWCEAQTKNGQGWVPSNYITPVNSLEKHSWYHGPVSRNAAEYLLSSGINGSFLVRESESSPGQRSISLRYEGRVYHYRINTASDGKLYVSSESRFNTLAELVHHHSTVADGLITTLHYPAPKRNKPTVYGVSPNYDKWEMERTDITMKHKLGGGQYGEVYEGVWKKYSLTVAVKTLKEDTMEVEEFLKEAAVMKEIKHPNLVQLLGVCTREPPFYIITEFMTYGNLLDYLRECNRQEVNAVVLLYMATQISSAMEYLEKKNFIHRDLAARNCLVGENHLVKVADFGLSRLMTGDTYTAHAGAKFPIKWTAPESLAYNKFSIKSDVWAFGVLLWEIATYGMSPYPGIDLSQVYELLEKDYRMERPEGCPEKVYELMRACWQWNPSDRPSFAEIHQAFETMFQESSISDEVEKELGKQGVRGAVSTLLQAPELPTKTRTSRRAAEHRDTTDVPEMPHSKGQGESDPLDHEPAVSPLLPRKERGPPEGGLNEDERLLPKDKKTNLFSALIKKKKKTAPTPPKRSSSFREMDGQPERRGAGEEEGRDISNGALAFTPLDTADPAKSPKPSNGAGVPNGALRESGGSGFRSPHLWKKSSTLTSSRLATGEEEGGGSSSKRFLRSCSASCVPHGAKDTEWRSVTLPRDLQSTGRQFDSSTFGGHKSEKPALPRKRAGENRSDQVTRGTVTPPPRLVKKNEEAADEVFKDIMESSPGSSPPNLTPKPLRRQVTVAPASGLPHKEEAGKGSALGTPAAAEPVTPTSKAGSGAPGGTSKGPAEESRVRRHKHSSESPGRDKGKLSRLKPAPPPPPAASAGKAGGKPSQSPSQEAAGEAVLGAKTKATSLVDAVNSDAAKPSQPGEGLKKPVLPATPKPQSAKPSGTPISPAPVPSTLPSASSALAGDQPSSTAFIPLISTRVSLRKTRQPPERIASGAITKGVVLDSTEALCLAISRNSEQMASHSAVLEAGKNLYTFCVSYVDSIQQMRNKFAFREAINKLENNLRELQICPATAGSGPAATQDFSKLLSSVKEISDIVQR
Calls of active or inactive are those of the source.
endpoint_name: Kd

{"columns": ["compound", "measured_target", "endpoint_name", "observed_measurement"],
 "data": [
  ["COc1ncc(-c2ccc3nccc(-c4ccnnc4)c3c2)cc1NS(=O)(=O)c1ccc(F)cc1F [OMIPALISIB]", "UniProt P00519", "Kd", "> 30 µM (inactive)"],
  ["Cc1cc(Nc2ncnc3ccc(NC4=NC(C)(C)CO4)cc23)ccc1Oc1ccn2ncnc2c1 [TUCATINIB]", "UniProt P00519", "Kd", "> 30 µM (inactive)"]
]}

Now, please, on to the next compound.
Entry Cn1ncc(Cl)c1-c1cc(C(=O)N[C@H](CN)Cc2ccc(F)c(F)c2)oc1Cl [UPROSERTIB] : reported Kd = ?
> 30 µM (inactive)

----------
target: STE20-like serine/threonine-protein kinase (Homo sapiens); also: in the data inactive means no Kd found up to 30 µM
Sequence (Q9H2G2 whole entry): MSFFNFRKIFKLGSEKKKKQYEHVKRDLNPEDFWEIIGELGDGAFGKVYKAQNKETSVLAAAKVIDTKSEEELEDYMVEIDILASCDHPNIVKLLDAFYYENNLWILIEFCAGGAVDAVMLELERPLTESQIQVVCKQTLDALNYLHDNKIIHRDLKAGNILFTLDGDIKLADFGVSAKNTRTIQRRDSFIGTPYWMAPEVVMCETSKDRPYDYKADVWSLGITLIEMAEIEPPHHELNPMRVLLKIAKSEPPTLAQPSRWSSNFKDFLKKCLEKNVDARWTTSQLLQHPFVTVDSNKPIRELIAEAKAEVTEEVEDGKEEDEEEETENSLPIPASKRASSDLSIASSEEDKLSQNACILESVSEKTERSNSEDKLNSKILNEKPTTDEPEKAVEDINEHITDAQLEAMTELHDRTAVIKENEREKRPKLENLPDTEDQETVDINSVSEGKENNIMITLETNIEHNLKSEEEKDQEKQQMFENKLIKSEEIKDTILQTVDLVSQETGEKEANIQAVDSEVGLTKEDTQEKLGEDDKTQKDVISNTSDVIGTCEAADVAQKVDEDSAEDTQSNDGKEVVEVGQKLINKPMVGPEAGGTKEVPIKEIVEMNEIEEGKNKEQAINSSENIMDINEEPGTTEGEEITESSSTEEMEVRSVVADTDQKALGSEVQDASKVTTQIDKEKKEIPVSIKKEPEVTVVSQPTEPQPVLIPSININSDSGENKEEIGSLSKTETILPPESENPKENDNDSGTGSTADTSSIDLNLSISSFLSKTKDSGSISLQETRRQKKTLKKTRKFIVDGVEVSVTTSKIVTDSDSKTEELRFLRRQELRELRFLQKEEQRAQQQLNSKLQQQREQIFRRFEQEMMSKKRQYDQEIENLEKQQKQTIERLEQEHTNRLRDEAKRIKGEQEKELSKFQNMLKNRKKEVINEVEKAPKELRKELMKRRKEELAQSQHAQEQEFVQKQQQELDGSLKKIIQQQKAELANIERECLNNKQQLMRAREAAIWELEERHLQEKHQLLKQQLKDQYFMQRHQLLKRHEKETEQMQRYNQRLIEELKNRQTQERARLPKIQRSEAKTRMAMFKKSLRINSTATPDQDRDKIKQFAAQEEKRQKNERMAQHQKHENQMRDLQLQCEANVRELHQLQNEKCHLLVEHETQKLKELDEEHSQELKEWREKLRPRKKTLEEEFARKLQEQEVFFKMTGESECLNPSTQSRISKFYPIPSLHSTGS
Structures can show the parent of a compound that is named as a salt. Activity calls are given as the source filed them.
Use one of these outcomes when replying: 1.0 (active), 0.0 (inactive)

Examples with answers:
{"columns": ["molecule", "category_label"],
 "data": [
  ["Cn1cc(-c2cnc3ccc4ccc(CS(=O)(=O)NCc5ccccn5)cc4c(=O)c3c2)cn1 [MK-8033]", 0.0],
  ["CN1C/C=C/CCOc2cccc(c2)-c2ccnc(n2)Nc2cccc(c2)C1 [ZOTIRACICLIB]", 1.0],
  ["N#CC1(c2ccc(NC(=O)c3cccnc3NCc3ccncc3)cc2)CCCC1 [RIVOCERANIB]", 0.0],
  ["C[C@@H](NC(=O)c1ncnc(N)c1Cl)c1ncc(C(=O)Nc2cc(C(F)(F)F)c(Cl)cn2)s1 [TOVORAFENIB]", 0.0],
  ["O=C(Cc1ccc(-c2ccc(OCCN3CCOCC3)cc2)cn1)NCc1ccccc1 [TIRBANIBULIN]", 0.0],
  ["CCS(=O)(=O)N1CCN(c2ccc(Nc3ncc(C(N)=O)c(NC4CC4)n3)cc2)CC1 [Cerdulatinib Hydrochloride]", 0.0],
  ["CCNC(=O)C#Cc1ccc2c(c1)NC(=O)/C2=C(\\Nc1ccc(CN(C)C)cc1)c1ccccc1", 1.0],
  ["CO[C@H]1C[C@@H]2CC[C@@H](C)[C@@](O)(O2)C(=O)C(=O)N2CCCC[C@H]2C(=O)O[C@H]([C@H](C)C[C@@H]2CC[C@@H](O)[C@H](OC)C2)CC(=O)[C@H](C)/C=C(\\C)[C@@H](O)[C@@H](OC)C(=O)[C@H](C)C[C@H](C)/C=C/C=C/C=C/1C [SIROLIMUS]", 0.0]
]}

Assay result, entry COc1cc2c(Nc3ccc(Cl)c(Cl)c3F)ncnc2cc1OC[C@@H]1C[C@@H]2CN(C)C[C@@H]2C1 [TESEVATINIB] — outcome?
1.0

Hi team, can someone confirm the assay call for Cc1nc2cc(-n3ncc(C(=O)c4cc5ccccc5[nH]4)c3N)ccc2[nH]1 [FGFR INHIBITOR DEBIO 1347] ?
0.0

Entry CNC(=O)c1cc(Oc2ccc(NC(=O)Nc3cc(C(C)(C)C)nn3-c3ccc4ncccc4c3)c(F)c2)ccn1 [REBASTINIB] : call = ?
0.0

Record request — test call for FC(F)(F)c1ccc(/C=C/c2nc(COc3ccc(CCCCn4ccnn4)cc3)co2)cc1 [MUBRITINIB]
0.0

----------
target: Dual specificity tyrosine-phosphorylation-regulated kinase 1A (Homo sapiens); also: in the data inactive means no Kd found up to 30 µM
Activity calls are given as the source filed them.
Hi there, use one of these labels in your reply, thanks! active, inactive

{"columns": ["chemical_string", "category_label"],
 "data": [
  ["C=CC(=O)N1CCC[C@H](n2c(=O)n(-c3ccc(Oc4ccccc4)cc3)c3c(N)ncnc32)C1", "inactive"],
  ["COc1cc([C@@H]2c3cc4c(cc3[C@H](O)[C@H]3COC(=O)[C@@H]23)OCO4)cc(OC)c1OC", "inactive"],
  ["CO[C@H]1C[C@@H]2CC[C@@H](C)[C@@](O)(O2)C(=O)C(=O)N2CCCC[C@H]2C(=O)O[C@H]([C@H](C)C[C@@H]2CC[C@@H](O)[C@H](OC)C2)CC(=O)[C@H](C)/C=C(\\C)[C@@H](O)[C@@H](OC)C(=O)[C@H](C)C[C@H](C)/C=C/C=C/C=C/1C", "inactive"],
  ["Cc1nc(Nc2n[nH]c3c2CN(C(=O)N[C@H](CN(C)C)c2ccccc2)C3(C)C)c2sccc2n1", "inactive"]
]}

What call does the record list for "CNC(=O)c1nn(C)c2c1C(C)(C)Cc1cnc(Nc3ccc(N4CCN(C)CC4)cc3)nc1-2" ?
active

----------
target: Receptor-interacting serine/threonine-protein kinase 2 (Homo sapiens); also: in the data inactive means no Kd found up to 30 µM
Sequence (O43353 whole entry): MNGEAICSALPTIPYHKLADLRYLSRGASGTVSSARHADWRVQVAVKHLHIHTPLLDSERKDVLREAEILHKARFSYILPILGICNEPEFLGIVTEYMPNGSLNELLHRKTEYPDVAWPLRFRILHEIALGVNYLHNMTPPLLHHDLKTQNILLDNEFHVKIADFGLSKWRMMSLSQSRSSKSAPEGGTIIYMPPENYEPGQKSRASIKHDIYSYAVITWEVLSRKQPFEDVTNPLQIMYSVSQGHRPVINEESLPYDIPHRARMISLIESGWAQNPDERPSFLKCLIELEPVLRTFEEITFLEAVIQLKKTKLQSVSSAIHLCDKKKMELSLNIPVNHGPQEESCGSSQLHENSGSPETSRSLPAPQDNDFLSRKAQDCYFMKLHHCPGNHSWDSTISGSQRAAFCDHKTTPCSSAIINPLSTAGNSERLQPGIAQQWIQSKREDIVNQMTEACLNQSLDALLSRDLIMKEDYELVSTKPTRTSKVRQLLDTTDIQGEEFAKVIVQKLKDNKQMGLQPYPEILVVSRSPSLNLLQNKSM
Activity calls are given as the source filed them.
Respond using exactly one of the listed classes: active, inactive

Past entries and their recorded results:
{"columns": ["molecule", "category_label"],
 "data": [
  ["CCNC(=O)C#Cc1ccc2c(c1)NC(=O)/C2=C(\\Nc1ccc(CN(C)C)cc1)c1ccccc1", "inactive"],
  ["NC(=O)c1c(OCc2c(F)cc(Br)cc2F)nsc1NC(=O)NCCCCN1CCCC1", "active"],
  ["N#CC1(c2ccc(NC(=O)c3cccnc3NCc3ccncc3)cc2)CCCC1", "inactive"],
  ["CC(=O)NCC(=O)N1[C@@H]2CC[C@H]1c1ccc(Nc3ncc(C(F)(F)F)c(NC4CCC4)n3)cc12", "inactive"],
  ["CCS(=O)(=O)c1cccc(-c2cc(C(=O)NC3CCN(C)CC3)c(C)c3[nH]c4ncc(C)cc4c23)c1", "inactive"],
  ["C=CC(=O)Nc1cc2c(Nc3ccc(F)c(Cl)c3)ncnc2cc1C#CC(C)(C)N1CCN(C)CC1 [AV-412 FREE BASE]", "inactive"]
]}

Which result was noted for this molecule in the test: "C[C@H]1CNCCCN1S(=O)(=O)c1cccc2cncc(F)c12"
inactive

Recorded test call requested for "CNC(=O)c1cc(Oc2ccc(NC(=O)Nc3cc(C(C)(C)C)nn3-c3ccc4ncccc4c3)c(F)c2)ccn1"
inactive

Hello, I am checking results. What call was entered for "Cc1nc(NC(=O)N2CCC[C@H]2C(N)=O)sc1-c1ccnc(C(C)(C)C(F)(F)F)c1" ?
inactive

I'd appreciate the recorded outcome for "COc1c(OCCCN2CCOCC2)ccc2c1N=C(NC(=O)c1cnc(N)nc1)N1CCN=C21" from this test.
inactive

Short answer needed: outcome of this test for "Cn1cnc2c(F)c(Nc3ccc(Br)cc3F)c(C(=O)NOCCO)cc21" ?
inactive

----------
target: Receptor-interacting serine/threonine-protein kinase 3 (Homo sapiens); also: in the data inactive means no Kd found up to 30 µM
Sequence (Q9Y572 whole entry): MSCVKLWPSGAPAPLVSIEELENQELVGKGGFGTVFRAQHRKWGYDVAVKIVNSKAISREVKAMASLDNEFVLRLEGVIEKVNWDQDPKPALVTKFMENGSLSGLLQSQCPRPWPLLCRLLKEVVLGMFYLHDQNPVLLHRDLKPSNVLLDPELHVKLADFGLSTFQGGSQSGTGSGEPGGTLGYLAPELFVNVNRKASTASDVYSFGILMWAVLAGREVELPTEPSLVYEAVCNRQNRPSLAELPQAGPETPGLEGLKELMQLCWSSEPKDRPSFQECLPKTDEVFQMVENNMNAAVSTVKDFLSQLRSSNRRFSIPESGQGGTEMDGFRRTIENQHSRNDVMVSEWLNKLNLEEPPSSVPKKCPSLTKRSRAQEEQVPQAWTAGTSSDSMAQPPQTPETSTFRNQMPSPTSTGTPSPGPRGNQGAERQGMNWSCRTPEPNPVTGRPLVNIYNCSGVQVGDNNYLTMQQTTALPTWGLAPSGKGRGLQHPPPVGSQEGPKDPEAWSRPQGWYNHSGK
Activity calls are given as the source filed them.
Respond using exactly one of the listed classes: T for active, F for inactive

Past entries and their recorded results:
{"columns": ["chemical_string", "category_label"],
 "data": [
  ["C[C@@H](NC(=O)c1ncnc(N)c1Cl)c1ncc(C(=O)Nc2cc(C(F)(F)F)c(Cl)cn2)s1", "T"],
  ["CO[C@H]1C[C@@H]2CC[C@@H](C)[C@@](O)(O2)C(=O)C(=O)N2CCCC[C@H]2C(=O)O[C@H]([C@H](C)C[C@@H]2CC[C@@H](OP(C)(C)=O)[C@H](OC)C2)CC(=O)[C@H](C)/C=C(\\C)[C@@H](O)[C@@H](OC)C(=O)[C@H](C)C[C@H](C)/C=C/C=C/C=C/1C", "F"],
  ["CNC(=O)c1cccc2cc(Oc3ccnc4cc(OCC5(N)CC5)c(OC)cc34)ccc12", "F"]
]}

Given "Cc1cnc(NC(=O)Nc2cc(Br)c(C)cc2OC[C@@H]2CNCCO2)cn1" , state the outcome it received in this test.
F

For "COc1ccc(S(=O)(=O)N(C(C)=O)c2ccccc2/C=C/c2cc[n+]([O-])cc2)cc1" , what call appears in the results of this test?
F

Give the logged outcome of this assay for the following compound: "FC(F)(F)c1ccc(/C=C/c2nc(COc3ccc(CCCCn4ccnn4)cc3)co2)cc1"
F

----------
biological target: Mitogen-activated protein kinase kinase kinase 6 (Homo sapiens); also: in the data inactive means no Kd found up to 30 µM
Sequence (O95382 whole entry): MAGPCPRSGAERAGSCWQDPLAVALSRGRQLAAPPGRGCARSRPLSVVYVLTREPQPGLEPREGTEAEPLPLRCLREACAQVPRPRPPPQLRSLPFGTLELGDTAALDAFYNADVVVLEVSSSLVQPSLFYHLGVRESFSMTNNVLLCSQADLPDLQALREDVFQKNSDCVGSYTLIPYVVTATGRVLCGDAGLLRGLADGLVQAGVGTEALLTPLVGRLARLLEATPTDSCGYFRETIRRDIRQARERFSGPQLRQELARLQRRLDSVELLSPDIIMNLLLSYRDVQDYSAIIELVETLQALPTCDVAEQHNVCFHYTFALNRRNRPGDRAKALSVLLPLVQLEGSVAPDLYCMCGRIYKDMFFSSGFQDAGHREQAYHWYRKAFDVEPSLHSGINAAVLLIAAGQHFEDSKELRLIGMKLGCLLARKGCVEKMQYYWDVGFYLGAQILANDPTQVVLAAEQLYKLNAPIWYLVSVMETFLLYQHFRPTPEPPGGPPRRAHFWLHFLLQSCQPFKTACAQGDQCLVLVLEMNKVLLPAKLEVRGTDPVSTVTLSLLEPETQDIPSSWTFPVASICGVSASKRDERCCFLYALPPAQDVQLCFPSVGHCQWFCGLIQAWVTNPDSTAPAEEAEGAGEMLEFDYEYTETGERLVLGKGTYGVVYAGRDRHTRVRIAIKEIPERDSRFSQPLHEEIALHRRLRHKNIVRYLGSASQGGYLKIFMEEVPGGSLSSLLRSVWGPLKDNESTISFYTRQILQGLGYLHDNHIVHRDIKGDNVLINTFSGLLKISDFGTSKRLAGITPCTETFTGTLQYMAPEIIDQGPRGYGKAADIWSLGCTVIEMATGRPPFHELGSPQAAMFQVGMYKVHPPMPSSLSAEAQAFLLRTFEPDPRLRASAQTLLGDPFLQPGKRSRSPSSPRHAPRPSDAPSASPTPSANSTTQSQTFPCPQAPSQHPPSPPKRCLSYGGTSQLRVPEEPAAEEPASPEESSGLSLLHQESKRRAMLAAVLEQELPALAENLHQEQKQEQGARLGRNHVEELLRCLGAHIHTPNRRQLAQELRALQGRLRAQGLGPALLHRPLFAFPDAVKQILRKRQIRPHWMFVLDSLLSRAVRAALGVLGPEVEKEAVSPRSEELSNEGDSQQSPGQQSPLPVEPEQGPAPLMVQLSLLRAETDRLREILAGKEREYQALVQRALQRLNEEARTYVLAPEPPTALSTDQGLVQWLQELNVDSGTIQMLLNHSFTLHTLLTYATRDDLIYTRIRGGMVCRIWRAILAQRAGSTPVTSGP
Activity calls are given as the source filed them.
Give your call using only these classes: TRUE (active), FALSE (inactive)

Known results for compounds:
{"columns": ["compound", "category_label"],
 "data": [
  ["C=CC(=O)Nc1cc2c(Nc3ccc(F)c(Cl)c3)ncnc2cc1C#CC(C)(C)N1CCN(C)CC1 [AV-412 FREE BASE]", "FALSE"],
  ["CC(=O)NCC(=O)N1[C@@H]2CC[C@H]1c1ccc(Nc3ncc(C(F)(F)F)c(NC4CCC4)n3)cc12", "TRUE"],
  ["CN(C[C@@H]1COCCO1)S(=O)(=O)Nc1ccc2ccc3ncc(-c4cnn(C)c4)cc3c(=O)c2c1", "FALSE"],
  ["CNC(=O)c1cccc2cc(Oc3ccnc4cc(OCC5(N)CC5)c(OC)cc34)ccc12", "FALSE"],
  ["CC(=O)c1cnc2ccc(-c3cc(Cl)c(O)c(Cl)c3)nc2c1N[C@H]1CC[C@H](CN(C)C)CC1", "TRUE"]
]}

Could you please tell me the result logged for "CNC(=O)c1cc(Oc2ccc(NC(=O)Nc3cc(C(C)(C)C)nn3-c3ccc4ncccc4c3)c(F)c2)ccn1" in this assay?
FALSE

What was the test verdict on "Cn1cnc2c(F)c(Nc3ccc(Br)cc3F)c(C(=O)NOCCO)cc21" ?
FALSE

For "CNC(=O)c1nn(C)c2c1C(C)(C)Cc1cnc(Nc3ccc(N4CCN(C)CC4)cc3)nc1-2" , what call appears in the results of this test?
FALSE

What was the test verdict on "COCC(=O)NC/C=C/c1ccc2ncnc(Nc3ccc(Oc4ccc(C)nc4)c(C)c3)c2c1" ?
FALSE

Taken from ChEMBL document CHEMBL3991601.
